- Tested on: anesthetized guinea-pig
- protocol: Inotropic effect and lethal dose, slow intravenous infusion in anesthetized guinea-pig
- conditions.used: slow intravenous infusion over 90 minutes
Structures can show the parent of a compound that is named as a salt.
Record form. Attribute: EDmax (dose inducing maximum positive inotropic effect). Fill in for each entry.
Kindly provide the numeric value in µmol/kg only, without the unit symbol.

Ask: Quick one: EDmax (dose inducing maximum positive inotropic effect) for C[C@]12CCC(=NOCCN)CC1C(=O)C[C@@H]1[C@@H]2CC[C@]2(C)C(=O)CC[C@@H]12.Cl (mixture of isomers) [Compd. 22b, reference compound] ?
Result: 5.74

Ask: Quick one: EDmax (dose inducing maximum positive inotropic effect) for CC12CCC3C(OC(=O)CC4CC(=NOC5CCNC5)CCC43C)C1CCC2=O (stereo not shown) [I-bk, hydrochloride] ?
Result: 23.9

Ask: Quick one: EDmax (dose inducing maximum positive inotropic effect) for C[C@H]1O[C@@H](O[C@H]2[C@@H](O)C[C@H](O[C@H]3[C@@H](O)C[C@H](O[C@H]4CC[C@@]5(C)[C@H](CC[C@@H]6[C@@H]5C[C@@H](O)[C@]5(C)[C@@H](C7=CC(=O)OC7)CC[C@]65O)C4)O[C@@H]3C)O[C@@H]2C)C[C@H](O)[C@@H]1O [digoxin, reference compound] ?
Result: 0.65

Ask: Quick one: EDmax (dose inducing maximum positive inotropic effect) for CC12CCC3C(NCCC4CC(=NOC5CCNC5)CCC43C)C1CCC2=O (stereo not shown) [I-ba] ?
Result: 10.1
